B1: CPEB3 Ribozyme (parent)
chain: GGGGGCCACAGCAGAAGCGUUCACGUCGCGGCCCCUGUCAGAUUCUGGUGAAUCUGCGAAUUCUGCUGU

Variants of: B1
TEST METHOD NOTES: self-cleavage, relative activity (ratio to wild type); higher = more cleavage; co-transcriptional
READOUT: self-cleavage

| SEQUENCE TEXT | READOUT | READING |
| --- | --- | --- |
| GGGGGCCACAGCAGAAGCGUUCACGUCGCGGCUCCUGUCAGAUUCGGGUGAAUCUGCGAAUUCUGCUGU [C33U U46G] | self-cleavage | 0.979 |
| GGGGGCAACAGCAGAAGCGUUCACGUCGCGGCCCUUGUCAGAUUCUGGUGAAUCUGCGAAUUCUGCUGU [C7A C35U] | self-cleavage | 0.222 |
| GGGUGCCACAGCAGAAGCGUUCACGUCGCGGCCCCUGUCAGAUUAUGGUGAAUCUGCGAAUUCUGCUGU [G4U C45A] | self-cleavage | 0.554 |
| GGGGGCCGCAGCAGAAGCGUUCACGUCGCGGCCCCUGUCAGAUUCUGGUGAAUCUGCGAAUUCUGCUCU [A8G G68C] | self-cleavage | 0.851 |
| GGGGGUCACAGCAGAAGAGUUCACGUCGCGGCCCCUGUCAGAUUCUGGUGAAUCUGCGAAUUCUGCUGU [C6U C18A] | self-cleavage | 0.119 |
| GGGGGCCACAGCAGAAGUGUUCACGUCGCGGCCCCUGUCAGAUUCUGGUGAAUCUGCGAAUUCUGCUUU [C18U G68U] | self-cleavage | 0.943 |
| GGGGGCCACAGCAGAAGCGUUCACGUCGCUGCCCCUGUCAGAUUCUGGUGAAGCUGCGAAUUCUGCUGU [G30U U53G] | self-cleavage | 0.241 |
| AGGGGCCACAGCAGGAGCGUUCACGUCGCGGCCCCUGUCAGAUUCUGGUGAAUCUGCGAAUUCUGCUGU [G1A A15G] | self-cleavage | 0.159 |
| GGGGGCCACAGAAGAAGCGUUCACGUCGCGGCCCCUGUCAGAAUCUGGUGAAUCUGCGAAUUCUGCUGU [C12A U43A] | self-cleavage | 0.259 |
| GGGGCCCACAGCAGAAGCGUUCACGUCGCGGCCCCUGUCAGAUUCUGGUGAAUCUGCGAAUACUGCUGU [G5C U62A] | self-cleavage | 0.169 |
| GGGGGCCACAGCAGAAGCGUUUACGUCGCGGCCCCUGUCAGAUUCUGGUGAAUCUGCGAAUUCAGCUGU [C22U U64A] | self-cleavage | 0.21 |
| GGGCGCCACUGCAGAAGCGUUCACGUCGCGGCCCCUGUCAGAUUCUGGUGAAUCUGCGAAUUCUGCUGU [G4C A10U] | self-cleavage | 0.802 |
| GGGGGACACAGCAGAAGCGUUCACGUCGCGGCCCCUGUCAGAUUCUGGUGAAUCUGCGAUUUCUGCUGU [C6A A60U] | self-cleavage | 0.226 |
| GGGGGCCCUAGCAGAAGCGUUCACGUCGCGGCCCCUGUCAGAUUCUGGUGAAUCUGCGAAUUCUGCUGU [A8C C9U] | self-cleavage | 1.01 |
| GGGGGCCACAGCAGAAGCGUUCACGUCGCGGCCCCUGUCAUAUUCUGGUGAAUCUGCGAAUCCUGCUGU [G41U U62C] | self-cleavage | 0.384 |
| GGGGGCCACAGCAGAAGCGUUCACGUCGCGGCCCUUGUCAGAUUCUGGUGAAUCUGCGAAUUCUACUGU [C35U G65A] | self-cleavage | 0.847 |
| GGGGGCCACAGCAGAAGCGUUCACGUCGCGGCCCCUGUCAGAUUCUGGUAUAUCUGCGAAUUCUGCUGU [G50A A51U] | self-cleavage | 0.987 |
| GGGGGCCACAGCAGAACCGUUCACGUCGCUGCCCCUGUCAGAUUCUGGUGAAUCUGCGAAUUCUGCUGU [G17C G30U] | self-cleavage | 0.206 |
| GGGGUCCACAGCAGAAGCGUUCACGUUGCGGCCCCUGUCAGAUUCUGGUGAAUCUGCGAAUUCUGCUGU [G5U C27U] | self-cleavage | 0.032 |
| GGGGGCCACAGCAGAAGCGUUCACGUCGCGGCCCCUGUCAGAUUCUGGUGAAUCUGAGAAUUCUGCUGA [C57A U69A] | self-cleavage | 0.377 |
| GGAGGCCACAUCAGAAGCGUUCACGUCGCGGCCCCUGUCAGAUUCUGGUGAAUCUGCGAAUUCUGCUGU [G3A G11U] | self-cleavage | 0.402 |
| GGGGGCAACAGCAGAAGCGUUCACGUCGCGGCCCCUGUCAGAUUCUGGUGAAUCUGCGAAUUCUGCUUU [C7A G68U] | self-cleavage | 0.937 |
| GGGGGCCACAGCAGAAGCGUUCAAGUCGCGGCCCCUGUCAGAUUCUGGUGAAUCUGCGAAUUUUGCUGU [C24A C63U] | self-cleavage | 0.699 |
| GGGGGCCACAGCAGAAGCGUUCACUUCGCGGCGCCUGUCAGAUUCUGGUGAAUCUGCGAAUUCUGCUGU [G25U C33G] | self-cleavage | 0.128 |
| GGGGGCCACAGCAGAAGCGUUCACGUCGCGGCCCCUGUCAGAUUCUGGGGAAUCUGCGAAUUCUGUUGU [U49G C66U] | self-cleavage | 0.98 |
| GGGGGCCACAGCAGAAGCGGUCACGUCGCGGCCCCUGUCAGAUUCUGGUGAAUUUGCGAAUUCUGCUGU [U20G C54U] | self-cleavage | 0.196 |
| GGGGGCCCCAGCAGAAGCGUUCACGUCGCGGCCCCUGUCAGAUUCUGGUGAAUCUGUGAAUUCUGCUGU [A8C C57U] | self-cleavage | 0.357 |
| GGGGGCCACAGCAGAAGCGUUCACGUCGCGGCCCCUGUCAAAUUCUGGUGAAUCUGCGAAUGCUGCUGU [G41A U62G] | self-cleavage | 0.422 |
| GGGGGCCACAGCAGAAGCGUUCACGUCGCGGCCCCUGUCAGAUUCUGCUCAAUCUGCGAAUUCUGCUGU [G48C G50C] | self-cleavage | 0.944 |
| GGAGGCCACAGCAGAAGCGUUCACGUCGCGGCCCCUUUCAGAUUCUGGUGAAUCUGCGAAUUCUGCUGU [G3A G37U] | self-cleavage | 0.0837 |
| GGGGGCCACAGCAGAAGCGUUCACGUCGCGGCCCCUGUCAGAUUCAGCUGAAUCUGCGAAUUCUGCUGU [U46A G48C] | self-cleavage | 1.01 |
| GGAGGCCACAGCAGAAGCGUUCACGUCGCGGCCCCUGUCAGAUUCUGGUGAAUCUGCUAAUUCUGCUGU [G3A G58U] | self-cleavage | 0.701 |
| GGGGGCCACAGCAGAAGCGUUCACGUCGCGGCCCCUGUCAGAGUCUGAUGAAUCUGCGAAUUCUGCUGU [U43G G48A] | self-cleavage | 0.964 |
| GGGGGCCACAGCUGUAGCGUUCACGUCGCGGCCCCUGUCAGAUUCUGGUGAAUCUGCGAAUUCUGCUGU [A13U A15U] | self-cleavage | 0.56 |
| GGGGGCCACAGAAGAAGCGUUCACGUCGCGGCGCCUGUCAGAUUCUGGUGAAUCUGCGAAUUCUGCUGU [C12A C33G] | self-cleavage | 0.395 |
| GGGGGCCACAGAAGAAGCGUUCACGUCGCGGCCCCUGUCAGAUUCUGGUGAAUCUGCCAAUUCUGCUGU [C12A G58C] | self-cleavage | 0.653 |
| GGGGGCCACAGCAGAAGCGCUCACGUCGCGGCCCCUGUCAGAUUCUGGUGAAUCUGCGUAUUCUGCUGU [U20C A59U] | self-cleavage | 0.15 |
| GGGGGCCACAGCAGAGGCGUUCACUUCGCGGCCCCUGUCAGAUUCUGGUGAAUCUGCGAAUUCUGCUGU [A16G G25U] | self-cleavage | 0.174 |
| GGGGGCCACAGCAGAAGCGUUCACGUCGCGGCCCCUGUCAGAAUCUGGUGAAUCUGCGAAUUCUGCUUU [U43A G68U] | self-cleavage | 0.973 |
| GGGGGUCACAGCAGAAGCGUGCACGUCGCGGCCCCUGUCAGAUUCUGGUGAAUCUGCGAAUUCUGCUGU [C6U U21G] | self-cleavage | 0.329 |
| CGGGGCCACAGCAGAAGCGUUCACGUCCCGGCCCCUGUCAGAUUCUGGUGAAUCUGCGAAUUCUGCUGU [G1C G28C] | self-cleavage | 0.12 |
| GGGGGCCACACCAGAAGCGUUCACGUCGCGGCCCCUGUCAGAUUCUGGUGAAUCUGGGAAUUCUGCUGU [G11C C57G] | self-cleavage | 0.284 |
| GGGGGCCACAGCAGAAGCGUUCACGUCGCGGCCCCUGUCAUAUUCUGGUGGAUCUGCGAAUUCUGCUGU [G41U A51G] | self-cleavage | 0.837 |
| GGGGGCUACAGCAGAAGCGUUCACGUCGCGGCCCUUGUCAGAUUCUGGUGAAUCUGCGAAUUCUGCUGU [C7U C35U] | self-cleavage | 0.947 |
| GAGGGCCACAGCAGAAGCGUUCACGUGGCGGCCCCUGUCAGAUUCUGGUGAAUCUGCGAAUUCUGCUGU [G2A C27G] | self-cleavage | 0.0739 |
| GGGGGCCACAGCAGAAGCGUUCACGUCGCCGCCCCUGCCAGAUUCUGGUGAAUCUGCGAAUUCUGCUGU [G30C U38C] | self-cleavage | 0.379 |
